molecular target: T1, tissue factor (TF) on the surface of TF-positive tumor cells (human, UniProt P13726 33-295); assay: flow cytometry on KYSE520 cells
T1 construct: whole, on cells; The cell line used is named under assay or readout in each row; also called TF on NCI-H358 cells; TF on KYSE520 cells
property_measured: EC50 (µg/mL)
One number for each entry, in µg/mL.

So for 22F11H5-hz1 (antibody, human IgG1, kappa, V domains shown, Humanized IgG1 kappa) VH: QVQLVQSGAEVKQPGASVKVSCKASGYTFTTYWMHWVRQAPGQGLEWMGMIDPSDSYTTYAQKFQGRVTLTVDTSTSTAYMELSSLRSEDTAVYYCARGSGPGLFAYWGQGTLVTVSS VL: DIQETQSPSSLSASVGDRVTITCRASQDIRNYLNWYQQKPGKAPKLLIYHTSRLQSGVPSRFSGSGSGTDYTLTISSLQPEDFATYYCQQGNMPPYTFGQGTKVEIKR , the logged EC50 turned out to be 0.0357

Value source: patent US20250333541A1
